# Assay comment: yeast display, Sf9 membrane polyspecificity reagent, FACS + sequencing; frameworks hold sequencing errors
Endpoint: polyreactivity (PSR sort gate)

| Seq string | Endpoint | Test result |
| --- | --- | --- |
| QVQLVESGGGLVQAGGSLRLSCAASGSTYQNAMGWYRQAPGKEREFVAAISWSGGSTYYADSVKGRFTISRDNAKNTVYLQMNSLKPEDTAVYYCAAYSYFSPRYDYWGQGTQVTVSS | polyreactivity (PSR sort gate) | high polyreactivity |
| QVQLVESGGGLVQAGGSLRLSCAASGNTISYYAMGWYRQAPGKERELVAAISANGGSTYYADSVKGRFTISRDNAKNTVYLQMNSLKPEDTAVYYCNRRFLSRNQNEYDYWGQGTQVTVSS | polyreactivity (PSR sort gate) | high polyreactivity |

---

# Assay comment: yeast display, Sf9 membrane polyspecificity reagent, FACS + sequencing; frameworks hold sequencing errors
Endpoint: polyreactivity (PSR sort gate)

Observe how each entry below is paired with its result.
| Seq string | polyreactivity (PSR sort gate) |
| --- | --- |
| QVQLVESGGGLVQAGGSLRLSCAASGSIFQYYGMGWYRPAPGKERELVAAITWNGGSTYADSVKGRFTISRDNAKNTVYLQMNSLKPEDTAVYYCAADLLVRWWLDYDYWGQGTQVTVSS | low polyreactivity |
| QVQIVESGGGLVQAGGSLPLSCDASGITFERYDMGWYRQAPGKERELGAAISTTGGRTYYADSVKGRFTISRDNAKNSVYLQMNSLKPEDTAVYYCAARYTTRRRYDYWGQGTQVTVSS | high polyreactivity |
| QVQLVESGGGLVQAGGSLRLSCAASGSTFGPYAMGWYRQAPGKERELVAAIRSDGGTYYADSVTGRFTISRDNAKNTVYLQMNSLKPEDTAVYYCNAVPVGWRYRQYDYWGQGPQVTVSS | high polyreactivity |
| QVQLVESGGGLVQAGGSLRLSCAATGSIISVNTMGWYRQAPGKERELVATIRTGDSTNYADSVKGRFTISRDNAKYTVYLQMNSLKPEDTAVYYCAAEWSSLNFDYWGQGTQVTVSS | low polyreactivity |

In the following, a different sequence is considered.
// query I am curious: what polyreactivity (PSR sort gate) value has been reported for QVQLVESGGGLVQAGGSIRLSCAASGSSFVSYAMGWYRQAPGKERELVATISWRGGSTYYADSVKGRFTISRDNAMNTVYLQMNSLKTEDTAVYYCAADVWHSQYYYGYEYWGQGTQVTVSS ?
// result low polyreactivity

---

# Assay comment: yeast display, Sf9 membrane polyspecificity reagent, FACS + sequencing; frameworks hold sequencing errors
Endpoint: polyreactivity (PSR sort gate)

| Seq string | polyreactivity (PSR sort gate) |
| --- | --- |
| EVQLVESGGGLVQAGGSLRLSCAASGSTFRYNAMGWSRQAPGKEWEFVATISWTTGSTYYADSVKGRFTISRDNAKNTVYLQMNCLNAEDTAVYYCAAVASLFSDFRDYDYWGQGTQVTVSS | low polyreactivity |
| QVQLVESGGGLVQAGGSLRLSCAASGSIFRPYAMGWYRQAPGKERELVAAISYRGGSTYYADSVKGRFTISRDYAKNTVYLLMNRLKPEDTAVYYCAADSREEGDYWGQGTQVTVSS | low polyreactivity |
| QVQLVESGGGLVQAGGSLRLSCAASGSTFVYYTMGWYRQAPGKERELVAAINNGGSTYYADSVKGRFTISRDNAKNTVYLQMNSLKPEDTAFYYCARFTSRVSKYYWGQGSQVTVSS | low polyreactivity |
| QVQLVESGGGLVQAGGSLRLSCAASGRIFPAYAMGWYRQSPGKERELVASIRRGGITYADSVKGRFTISRDNAKNTVSLQMTSLNPEDTAVYYCNAHYRGWGYHMDYWGQGTQVTGSS | low polyreactivity |
| QVQLVESGGGLVQAGGSLRLSCAASGFTFRLYTMGWYRQAPGKERELVAAITYSGDSTYYADSVKGRFTISRDYAKNTVYLQMNSLKPEDTAVYYCAARKYYARYYWGQGSQVTVSS | high polyreactivity |
| QVQLVESGGGLVQAGCSLRLSCAASGSIFSQSAMGWYRQAPGKERELVAAISARGTSTYYADSVKGRFTISRDNAKNTVYLQMNSLKPEDTAVYYCNTVRPYSSSSSRYYYWGQGTQVTVSS | high polyreactivity |
| QVQLVESGGGLVQAGGSLRLSCAASGFTFLINAMGWYRQAPGKERELVAAIRSGGSTNYADSVKGRFTISRDNAKNTVYLQMNSLKPEDTAVYYCAARRYYPYKYRYGYWGQGTQVTVSS | high polyreactivity |
| QVQLVESGGGLVQAGGSLRLSCAPSGSTFPWNAMGWYRQAPGKERELVAAIRTGGGRTYYADSVKGRFTISRDNAKNTVYLQMNSLKPEDTAVYYCNAYFTYWSQLYYWGQGTQVTVSS | high polyreactivity |
| QVQLVESGGGLVQAGGSLRLSCAASGRNFAGYAMLWYRQAPGKERELVATISSGGSTYYADSVKGRFTISRDNAKNTVYLQKNSLKPEDTAVYYCAAEYGTRQYSSYYKLFNYWGQGTQVTVSS | low polyreactivity |
| QVQLVESGGGLVQAGGSLRLSCAASGRIFNYYAMGWYRQAPGKERELVATISRNGGRTYYADSVKGRFTISRDNAKNTVYLQMNSLKPEVTAVYYCATDGLYRYDYWGQGTQVTVSS | high polyreactivity |

// query Form field: reported polyreactivity (PSR sort gate) of QVQLVESGGGLVQAGGSLRLSCAASGRTFESNAMGWYRQAPGKERELVAAISYGGGTTHYADSVKGRFTISRDNAKNTVYLQMNSLKPEDTAVYYCAADPEHQWESVTIGEYDYWGQGTQVTVSS
// result low polyreactivity

// query Please give the measured polyreactivity (PSR sort gate) for this sequence: QVQLVESGGGLVQAGGSLRLSCAASGSTFAFYAMGWYRQAPGKERELVAAITWRVGSTYYADSVKGRFTISRDNAKNTVYLQMNSLKPEDTAVYYCAVDIPFYDSDYWGQGTQVTVSS
// result low polyreactivity

// query Looking for the measured polyreactivity (PSR sort gate) of QVQLVESGGGLVQAGGSLRLSCAASGHIFFYYTMGWYRQAPGKERELVAGITIGGSTNYADSVKGRFTISRDNAKNTVYLQMNSVKPEDTAVYYCKVVKYVDIYSYWEYYYWGQGTQVTVSS , can you help?
// result low polyreactivity
